- Tested on: K562
- procedureDetails: NCI tumour cell line growth inhibition, 48 h
Calls of active or inactive are those of the source. Rule as the data show it: active = GI50 up to about 1.1 µM and inactive = higher.
Give GI50 for every item shown.

compound	experimentalValue
COc1ccc(C(=O)/C=C2\Nc3cccnc3N\C2=C/C(=O)c2ccc(OC)cc2)cc1	57.9 µM (inactive)
O=C(c1ccccc1)C1OC12C(=O)Nc1c(Cl)cc(Cl)cc12 (configuration not stated)	15.3 µM (inactive)
COC(=O)C(=NNc1ccccc1[N+](=O)[O-])C(=O)OC	> 100 µM (inactive)
O=S1(=O)c2ccccc2N2C(c3ccccc3)=NOC2(c2ccccc2)CC1c1ccc(Br)cc1 (configuration not stated)	> 100 µM (inactive)
O=C1CC(c2ccsc2)n2cccc21 (configuration not stated)	> 100 µM (inactive)
CC1OC(n2cc(F)c(=O)[nH]c2=O)C=CC1O (configuration not stated)	> 57.8 µM (inactive)
O=C(Nc1ccc([N+](=O)[O-])cc1[N+](=O)[O-])C(=O)C(C(=O)c1ccc(Cl)c(Cl)c1)C1OC(=O)c2ccccc21 (configuration not stated)	28.4 µM (inactive)
CC(C)(C)c1cc(S(=O)(=O)O)c2oc(-c3ccccc3)cc(=O)c2c1	> 100 µM (inactive)
COc1ccc(-c2c(C#N)c(-c3ccc(C)cc3)n(NS(=O)(=O)c3ccc(C)cc3)c(=O)c2C#N)cc1	57 µM (inactive)
CCCCCCCCCCCCCCCCCCNc1ccn(C2OC(COP(=O)(O)OCC3OC(n4cc(C)c(=O)[nH]c4=O)CC3F)C(O)C2O)c(=O)n1 (configuration not stated)	8.55 µM (inactive)

Give one value of GI50 per listed compound.
1. CSc1nn(C)cc2ncnc1-2
2. Cc1cc2nc3c(=O)[nH]c(=O)nc-3n(CC(O)C(O)C(O)CO)c2cc1N (configuration not stated)
3. COc1ccc(/C(=N/O)C(c2ccc(OC)cc2)C2C(=O)Oc3ccccc32)cc1 (configuration not stated)
4. C=C(C[N+](C)(C)C)N/N=C/c1oc(-c2ccc(OC)c(OC)c2)c(-c2ccc(OC)c(OC)c2)c1[N+](=O)[O-]
5. O=C(CC(=O)c1ccc([N+](=O)[O-])cc1)C(=O)Nc1nccs1
6. COc1cc([N+](=O)[O-])c(S(=O)(=O)O)cc1N

### Response
> 100 µM (inactive)
> 100 µM (inactive)
71.4 µM (inactive)
19.1 µM (inactive)
> 100 µM (inactive)
> 100 µM (inactive)
